Origin of the recorded values: PubChem BioAssay (NCI)

Test system: MDA-MB-435 melanoma
experiment: NCI-60 one-dose screen, 48 h (100 = growth as untreated, 0 = no growth, -100 = all killed)
condition_info: 10 µM
The panel holds about 83,000 compounds, 20% with a hit somewhere; the sample as a whole holds those more often.
We use 40% as the dividing line for growth: on or above the line is YES, below is NO.

Check out these entries, answers already filled in.
molecule	qualitative_label
O=C(Nc1ccncc1)C(=O)c1cn(S(=O)(=O)c2cccc(Cl)c2)c2ccccc12	NO
Nc1nc(-c2ccccc2Cl)cc(-c2ccc(Cl)cc2Cl)n1	NO
CCOC1(OCC)OC(c2ccccc2)=C(C#N)C(/C=C\c2ccccc2)C1(OCC)OCC (configuration not stated)	YES
COc1cc(OC)cc(-c2cncn2-c2ccc(-c3nc4cc(OC)cc(OC)c4s3)cc2)c1	NO
O=C(O)c1ccc(Cl)cc1Nc1ccc(F)cc1	YES
CCOC(=O)C1CCc2c(ccc3ccccc23)N1CCC#N (configuration not stated)	NO
O=C(Cc1csc2nc(-c3ccc(Cl)cc3)cn12)N/N=C/c1ccccc1O	YES
COc1cc(Nc2ccnc(NCCNc3ccnc4cc(Cl)ccc34)n2)cc(OC)c1	NO
COc1ccc(NC(=O)CSc2nc3ccccc3c(=O)n2CCc2ccccc2)cc1	YES
O=C(Nc1cccc(Br)c1)c1cc(=O)[nH]c2ccccc12	YES

Here's the next entry for you.
Query: Exam item: decide whether the reported growth for "CCC(=O)N1C/C(=C/c2ccc(OC)cc2)C(=O)/C(=C/c2ccc(OC)cc2)C1" is at least 40%.
Response: NO
